- Assay Details: in vitro
- Condition Context: human, hela cells, % viability
Label key: rule met means viability at 28.5 h, 10 µM under 90%; rule not met means viability at 28.5 h, 10 µM of 90% or more.

Compound | Group Label
O=C(NCCn1c(=O)oc2ccccc21)C(c1cccs1)c1cccs1 [CBK286198] | rule not met
CC(C)(C)OC(=O)N[C@@H](Cc1ccccc1)C(=O)NC[C@H]1CC[C@H](C(=O)O)CC1 [CBK286719] | rule met
O=C(Nc1ccc(=O)n2c1[C@@H]1C[C@@H](CN(C(=O)c3ccc(F)cc3)C1)C2)c1cncnc1 [CBK288713] | rule not met
Cc1ccc(C(=O)O)c(NC(=O)c2ccccc2F)c1 [CBK126744] | rule not met
O=C(c1cnn(-c2ccccc2)c1)N1CCc2[nH]c3ccccc3c2C1 [CBK281853] | rule met
c1ncn(C2CCCCC2)c1C1CCCCC1 [CBK016758] | rule not met

Reference for the values: paper PMC12040169
